test system: CP297; test: qHTS profiling for inhibitors of Plasmodium falciparum proliferation (AID 504749); also: nearly all actives have a fitted effect of over 60% in size; also: potency is read from the fitted curve at half-maximal effect; conditions: P. falciparum in erythrocytes, SYBR Green DNA, 72 h; series mostly up to 28.7 µM
Records with an inconclusive call do not appear. Active and inactive are the calls of the source. Calls follow the shape of the dose curve; as a rule, active = well fitted inhibition curve with a large enough effect; inconclusive = small, poorly fitted or top-dose-only effect; inactive = flat fitted curve, though single readings scatter.
measuredProperty: Potency

Consider the following illustrative entries.
>  <compound>
C[C@]12O[C@H](C[C@]1(O)CO)n1c3ccccc3c3c4c(c5c6ccccc6n2c5c31)CNC4=O

>  <Potency>
379 nM (active)

$$$$
>  <compound>
Cc1c(C)c2c(c(C)c1O)CC[C@@](C)(CCC[C@@H](C)CCC[C@@H](C)CCCC(C)C)O2

>  <Potency>
inactive

$$$$
>  <compound>
C=CCSSSCC=C

>  <Potency>
inactive

$$$$
>  <compound>
COC(=O)C1=C(C#N)NC(C)=C(C(=O)OC(C)C)C1c1cccc([N+](=O)[O-])c1 (stereo unspecified)

>  <Potency>
13500 nM (active)

$$$$
>  <compound>
CCC(=O)NCCC1CCc2ccc3c(c21)CCO3 (stereo unspecified)

>  <Potency>
inactive

$$$$

Consider now this further compound.
Please fill in: Potency reported for CO[C@H](C(=O)[C@@H](O)[C@@H](C)O)C1Cc2cc3cc(O[C@H]4C[C@@H](O[C@H]5C[C@@H](O)[C@H](O)[C@@H](C)O5)[C@@H](O)[C@@H](C)O4)c(C)c(O)c3c(O)c2C(=O)[C@H]1O[C@H]1C[C@@H](O[C@H]2C[C@@H](O[C@H]3C[C@](C)(O)[C@H](O)[C@@H](C)O3)[C@H](O)[C@@H](C)O2)[C@H](O)[C@@H](C)O1 (stereo partly specified) = 2690 nM (active)

###

tested on: NIH3T3; assay: Cytotoxic Profiling of Annotated Libraries Using Quantitative High-Throughput Screening (AID 1296008); details: Five cell lines viability, CellTiter-Glo ATP luminescence, 48-72 h; active compounds read low; also: % is scaled to controls: 0 for no effect and ±100 for the full control effect; nearly all actives have a fitted effect of over 60% in size
Results filed as inconclusive are left out.
Give max response for every item shown.
Response body: numeric value in %, unit text excluded.

Please fill in: max response reported for "O=C(O[C@@H]1O[C@H](CO)[C@@H](O)[C@H](O)[C@H]1O)c1c(O)cc(O)cc1/C=C/c1ccccc1" = 3.61

Please fill in: max response reported for "O=C1[C@H](O[C@@H]2O[C@H](CO)[C@@H](O)[C@H](O)[C@H]2O)Oc2ccccc2N1O" = 0.0797

Please fill in: max response reported for CC1CCC2C(C(=O)O)=CC3C(O)C(C)(C)CC123 (stereo not drawn) = -3.55

Please fill in: max response reported for "COC(=O)C1=CO[C@@H](O[C@@H]2O[C@H](COC(=O)/C=C/c3cc(OC)c(O)c(OC)c3)[C@@H](O)[C@H](O)[C@H]2O)[C@@H]2C(CO)=CC[C@H]12" = 0.53

Please fill in: max response reported for CC(/C=C/C1(O)C2(C)COC1(C)CC(=O)C2)O[C@@H]1O[C@H](CO)[C@@H](O)[C@H](O)[C@H]1O (stereo partly drawn) = 3.43

Please fill in: max response reported for CC1=C(C)C(=O)OC(C(C)(O)C2CCC3C4CC=C5CC(OC6OC(COC7OC(CO)C(O)C(O)C7O)C(O)C(O)C6O)CC(O)C5(C)C4CCC32C)C1 (stereo not drawn) = -0.0747

Please fill in: max response reported for "C[C@@H]1CC[C@H]2C(C)(C)[C@H](O)[C@H](O)C[C@]2(C)[C@@]12Cc1c(O)cc3c(c1O2)CNC3=O" = 3.46

Please fill in: max response reported for CC1CC(O)C2(C)C(C(=O)O)=CCCC2C1(C)CCc1ccoc1 (stereo not drawn) = -2.92

###

assay: Primary redox qHTS assay for identification of artifact compounds. (AID 1845223); details: Amplex Red/HRP redox cycling with DTT, fluorescence; series mostly up to 53.8 µM;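 also: 0% = DMSO and 100% = reference compound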
Results filed as inconclusive are left out. Active and inactive are the calls of the source. The call rests on the fitted dose curve; in most records, active means well fitted activation curve with a large enough effect; inconclusive means small, poorly fitted or top-dose-only effect; inactive means flat fitted curve, though single readings scatter.
measuredProperty: redox activity (% of DA3003)

Consider the following illustrative entries.
>  <compound>
C[C@@H]1C/C=C/C=C\C=C\C=C\[C@H](O[C@@H]2O[C@H](C)[C@@H](O)[C@H](N)[C@@H]2O)C[C@@H]2O[C@](O)(C[C@@H](O)C[C@H]3O[C@@H]3/C=C/C(=O)O1)C[C@H](O)[C@H]2C(=O)O

>  <redox activity (% of DA3003)>
inactive

$$$$
>  <compound>
COc1ccc(C(O[C@@H]2O[C@H](CO)[C@@H](O)[C@H](O)[C@H]2O)C(CO)Oc2ccc(/C=C/CO)cc2OC)cc1O (stereo not given in full)

>  <redox activity (% of DA3003)>
inactive

$$$$
>  <compound>
C#C[C@]1(O)CC[C@H]2[C@@H]3CCC4=C/C(=N/O)CC[C@@H]4[C@H]3CC[C@@]21CC

>  <redox activity (% of DA3003)>
inactive

$$$$
>  <compound>
C=C1[C@H]2[C@H](O[C@@H]3O[C@H](COC(=O)/C=C/c4cc(OC)c(O)c(OC)c4)[C@@H](O)[C@H](O)[C@H]3O)OC=C(C(=O)O)[C@H]2C[C@@H]1O

>  <redox activity (% of DA3003)>
inactive

$$$$
>  <compound>
COC(=O)C12C(=O)C(C)=C(O)C1(C)C(C)=CC1C34CCC(OC3=O)C(C)(C)C4CCC12C (stereo not given)

>  <redox activity (% of DA3003)>
inactive

$$$$

Please fill in: redox activity (% of DA3003) reported for "CO[C@@H]1COCC[C@@H]1N[C@@H]1CC[C@@](C(=O)N2CCc3ncc(C(F)(F)F)cc3C2)(C(C)C)C1" = inactive

Please fill in: redox activity (% of DA3003) reported for "CC1=C2C(=O)C=C(CO)[C@@H]2[C@H]2OC(=O)[C@H](C)[C@@H]2[C@@H](O)C1" = inactive

###

system: SKOV3; assay: Primary qHTS to identify gynecologic anti-cancer compounds using libraries of approved drugs and bioactive compounds (AID 1345084); details: Gynecologic cancer cell panel viability, ATPlite luminescence, 48 h; series mostly up to 57.5 µM; also: % is scaled to controls: 0 for no effect and ±100 for the full control effect; nearly all actives have a fitted effect of over 55% in size
Records with an inconclusive call do not appear. Calls of active or inactive are those of the source. Calls follow the shape of the dose curve; as a rule, active = well fitted cell-killing curve with a large enough effect; inconclusive = small, poorly fitted or top-dose-only effect, or effect the other way; inactive = flat fitted curve, though single readings scatter.
measuredProperty: activity change, negative = cytotoxicity

Consider the following illustrative entries.
>  <compound>
C=C1CCC2(OC1)OC1CC3C4CC=C5CC(O)CC(O[C@@H]6OC[C@@H](O)[C@H](O)[C@H]6O)C5(C)C4CCC3(C)C1(O)C2C (stereo not given in full)

>  <measuredTarget>
SKOV3

>  <activity change, negative = cytotoxicity>
inactive

$$$$
>  <compound>
CC1(O)CCC2C(C(=O)O)=COC(OC3OC(CO)C(O)C(O)C3OC(=O)/C=C/c3ccc(O)cc3)C21 (stereo not given)

>  <measuredTarget>
SKOV3

>  <activity change, negative = cytotoxicity>
inactive

$$$$
>  <compound>
C/C(=C\CCC(C)(O)c1ccc(C)cc1)C(=O)O (stereo not given)

>  <measuredTarget>
SKOV3

>  <activity change, negative = cytotoxicity>
inactive

$$$$
>  <compound>
CC1(C)CC2C(O)C3=C(CC(C)(O)C2C1)C(=O)OC3O (stereo not given)

>  <measuredTarget>
SKOV3

>  <activity change, negative = cytotoxicity>
inactive

$$$$

Consider now this further compound.
activity change, negative = cytotoxicity of "CNC(=O)[C@H]1O[C@@H](n2cnc3c(NCc4ccc(N)c(I)c4)ncnc32)[C@H](O)[C@@H]1O" , assay on SKOV3, is -8.5% [at 11.6 µM] (inactive)

###

Tested on: OV90
Experiment: Primary qHTS to identify gynecologic anti-cancer compounds using libraries of approved drugs and bioactive compounds (AID 1345084); also: % is scaled to controls: 0 for no effect and ±100 for the full control effect; nearly all actives have a fitted effect of over 55% in size
Conditions: Gynecologic cancer cell panel viability, ATPlite luminescence, 48 h; series mostly up to 57.5 µM
Description: National Center for Advancing Translational Sciences [NCATS] Assay Overview: Chemotherapeutic drug responses vary from cancer to cancer and from patient to patient. […] ATPlite is a luminescence based assay reliant on the conversion of a luciferase substrate to light in the presence of ATP. As a cytotoxic compound will suppress growth and decrease the number of cells, the concentration of ATP will decrease, and less light signal will be detected in the well. […]
Records with an inconclusive call do not appear. Calls of active or inactive are those of the source. The call rests on the fitted dose curve; in most records, active means well fitted cell-killing curve with a large enough effect; inconclusive means small, poorly fitted or top-dose-only effect, or effect the other way; inactive means flat fitted curve, though single readings scatter. *1 amine or outer side, *2 acyl side, *3 side chain or, on linkers, in order; H or OH if unused. Where a SMILES comes first, the peptide text is derived from it. Bridges are numbered along the chain shown (N, C = ends). X6 = O=C(CCC[*:2])[*:1]
measuredProperty: activity change, negative = cytotoxicity

Consider the following illustrative entries.
>  <compound>
CC1(C)CCCC2(C)C1C(O)C=C(CO)C2(O)C(=O)O (stereo not given)

>  <reportedValue>
inactive

$$$$
>  <compound>
C[C@H]1[C@H](C)CC[C@]2(C(=O)O[C@@H]3O[C@H](CO)[C@@H](O)[C@H](O)[C@H]3O)CC[C@]3(C(=O)O)C(=CCC4[C@@]5(C)CC[C@H](O[C@@H]6O[C@H](CO)[C@@H](O)[C@H](O)[C@H]6O)C(C)(C)C5CC[C@]43C)[C@H]12 (stereo not given in full)

>  <reportedValue>
-4.18% [at 11.6 µM] (inactive)

$$$$
>  <compound>
CC(=O)OC[C@]12[C@H](OC(C)=O)C(=O)[C@@H]3[C@@H](OC(C)=O)[C@@]14O[C@@]3(C)COC(=O)c1cccnc1[C@@H](C)[C@H](C)C(=O)O[C@@H]([C@H](OC(C)=O)[C@@H]2OC(C)=O)[C@]4(C)O

>  <reportedValue>
inactive

$$$$
>  <compound>
CC(C)c1ccc(CC(=O)N2CCC[C@@H](c3cccc(OC(C)(C)C(=O)O)c3)C2)cc1

>  <reportedValue>
inactive

$$$$

Consider now this further compound.
Please fill in: activity change, negative = cytotoxicity reported for CC[C@H](C)[C@@H]1NC(=O)[C@H](Cc2ccc(OC)cc2)NC(=O)CCCSC[C@@H](C(=O)N2CCC[C@H]2C(=O)N[C@@H](CC(C)C)C(=O)NCC(N)=O)NC(=O)[C@H](CC(N)=O)NC(=O)[C@H](CCC(N)=O)NC1=O (Y(Me)IQNCPLG-NH2; linker N-5 via X6) = inactive
